tested on: LOC_OS01G63280-cb003; experiment: thermal shift delta Tm vs DMSO control; higher = stronger stabilization (binding); settings: 12.5 µM; protein concentration 2 µM;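 also: purified Escherichia coli-expressed rice kinase domain construct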
// thermal shift delta Tm lookup, one value per entry
observable: thermal shift delta Tm (°C)

INSERT INTO results (molecule, measured_target, value) VALUES
  ('CC1(COc2ccc3c(c2)ncn3-c2ccc3cccc(N4CCC(N)CC4)c3n2)COC1', 'LOC_OS01G63280-cb003', 0.93),
  ('CC(C)(C)S(=O)(=O)c1ccc2nccc(Nc3n[nH]c4ccc(F)cc34)c2c1', 'LOC_OS01G63280-cb003', -0.25),
  ('CNC(=O)c1cc(Oc2ccc(NC(=O)Nc3ccc(Cl)c(C(F)(F)F)c3)c(F)c2)ccn1', 'LOC_OS01G63280-cb003', 1.71),
  ('Cc1ccc(Nc2cc(N[C@@H]3CCCC[C@@H]3N)nnc2C(N)=O)nc1C', 'LOC_OS01G63280-cb003', 0.77),
  ('CCc1cc(Nc2nccc(-c3c(-c4ccc(OC)c(C(=O)Nc5c(F)cccc5F)c4)nc4ccccn34)n2)c(OC)cc1N1CCC(N2CCN(S(C)(=O)=O)CC2)CC1', 'LOC_OS01G63280-cb003', 0.43),
  ('COc1cc2nccc(Oc3ccc(NC(=O)c4cn(C(C)C)c(=O)n(-c5ccc(F)cc5)c4=O)cc3F)c2cc1OC', 'LOC_OS01G63280-cb003', -0.09),
  ('C[S+]([O-])c1ccc(-c2nc(-c3ccc(F)cc3)c(-c3ccncc3)[nH]2)cc1 (stereo not drawn)', 'LOC_OS01G63280-cb003', 1.11),
  ('COc1ccc(COc2ccc(Cc3cnc(N)nc3N)cc2OC)cc1', 'LOC_OS01G63280-cb003', 0.32),
  ('COC(=O)c1ccc2c(c1)NC(=O)/C2=C(\Nc1ccc(N(C)C(=O)CN2CCN(C)CC2)cc1)c1ccccc1', 'LOC_OS01G63280-cb003', -0.1),
  ('CCN(CC)CCCC(C)Nc1nc(C)cc(Nc2ccc3nc(C)cc(N)c3c2)n1 (stereo not drawn)', 'LOC_OS01G63280-cb003', 0.28),
  ('COc1ccc(S(=O)(=O)N(C(C)=O)c2ccccc2/C=C/c2cc[n+]([O-])cc2)cc1', 'LOC_OS01G63280-cb003', 0.55),
  ('Clc1ccc(C2(c3ccc(-c4cn[nH]c4)cc3)CCNCC2)cc1', 'LOC_OS01G63280-cb003', 0.22),
  ('Cc1ccc(S(=O)(=O)/C=C/C#N)cc1', 'LOC_OS01G63280-cb003', -3.09);
